Data export: IC50 values recorded with VEGFR-2 (Homo sapiens, UniProt P35968).
Sequence (P35968 20-1356): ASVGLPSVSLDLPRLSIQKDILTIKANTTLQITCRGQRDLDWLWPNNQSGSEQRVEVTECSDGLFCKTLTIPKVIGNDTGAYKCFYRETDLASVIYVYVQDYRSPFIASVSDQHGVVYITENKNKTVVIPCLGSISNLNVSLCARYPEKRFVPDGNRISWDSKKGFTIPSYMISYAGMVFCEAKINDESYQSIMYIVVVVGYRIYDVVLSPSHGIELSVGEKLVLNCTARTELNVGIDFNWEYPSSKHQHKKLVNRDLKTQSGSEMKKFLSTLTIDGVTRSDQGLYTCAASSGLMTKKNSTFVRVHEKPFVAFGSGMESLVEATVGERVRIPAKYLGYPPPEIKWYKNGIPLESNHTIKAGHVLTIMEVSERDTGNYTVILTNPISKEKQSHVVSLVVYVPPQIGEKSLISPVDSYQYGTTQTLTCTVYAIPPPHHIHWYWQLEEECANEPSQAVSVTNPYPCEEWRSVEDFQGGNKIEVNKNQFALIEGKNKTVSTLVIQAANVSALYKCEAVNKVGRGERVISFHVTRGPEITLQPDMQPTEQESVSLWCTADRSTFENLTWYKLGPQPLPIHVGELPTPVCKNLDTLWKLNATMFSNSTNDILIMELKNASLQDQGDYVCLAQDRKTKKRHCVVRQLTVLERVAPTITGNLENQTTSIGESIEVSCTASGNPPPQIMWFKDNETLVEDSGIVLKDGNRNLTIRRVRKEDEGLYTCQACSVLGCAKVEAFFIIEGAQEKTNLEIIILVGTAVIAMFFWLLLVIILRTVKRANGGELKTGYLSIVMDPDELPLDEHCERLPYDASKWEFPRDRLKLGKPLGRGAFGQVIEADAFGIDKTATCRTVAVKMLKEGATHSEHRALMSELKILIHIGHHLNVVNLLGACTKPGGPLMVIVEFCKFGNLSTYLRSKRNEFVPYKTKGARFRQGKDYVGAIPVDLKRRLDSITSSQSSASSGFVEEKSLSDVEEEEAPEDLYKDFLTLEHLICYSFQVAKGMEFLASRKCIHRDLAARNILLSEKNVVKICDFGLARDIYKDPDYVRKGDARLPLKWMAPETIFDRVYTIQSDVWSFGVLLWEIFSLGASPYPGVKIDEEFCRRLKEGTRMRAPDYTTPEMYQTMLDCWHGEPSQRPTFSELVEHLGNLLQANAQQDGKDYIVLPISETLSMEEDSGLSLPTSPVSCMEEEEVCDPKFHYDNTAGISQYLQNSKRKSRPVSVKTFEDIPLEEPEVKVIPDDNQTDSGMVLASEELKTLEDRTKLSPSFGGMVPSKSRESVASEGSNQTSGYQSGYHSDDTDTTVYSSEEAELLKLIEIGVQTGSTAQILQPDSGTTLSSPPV
assay_endpoint: IC50 (nM)

INSERT INTO measurements (compound, result_value) VALUES
  ('O=C(Cn1c(=O)[nH]c2ccccc2c1=O)NCC(=O)N/N=C/c1ccc([N+](=O)[O-])cc1 [Compound 4b]', 35),
  ('O=C(Cn1c(=O)[nH]c2ccccc2c1=O)NCC(=O)NN=C1CCCCC1 [Compound 4e]', 82),
  ('O=C(Cn1c(=O)[nH]c2ccccc2c1=O)N1CCOCC1 [Compound 2f]', 210);

---

measured_on: c-Met (Homo sapiens)
method_summary: In vitro c-Met tyrosine kinase inhibition assay
conditions: conc 0.1 (unit not given)
assay_endpoint: c-Met %inh (%)

INSERT INTO assay_data (molecular_string, assay_endpoint, result_value) VALUES
  ('O=C(Cn1c(=O)[nH]c2ccccc2c1=O)NCC(=O)NN=C1CCCCC1', 'c-Met %inh', 55.05),
  ('O=C(Cn1c(=O)[nH]c2ccccc2c1=O)NCc1n[nH]c(=S)o1', 'c-Met %inh', 35.84),
  ('O=C(Cn1c(=O)[nH]c2ccccc2c1=O)N1CCOCC1', 'c-Met %inh', 44.08),
  ('O=C(Cn1c(=O)[nH]c2ccccc2c1=O)NCC(=O)N/N=C/c1ccc([N+](=O)[O-])cc1', 'c-Met %inh', 58.65),
  ('Cc1cc(C)n(C(=O)CNC(=O)Cn2c(=O)[nH]c3ccccc3c2=O)n1', 'c-Met %inh', 34.11),
  ('O=C(Cn1c(=O)[nH]c2ccccc2c1=O)NC1CCCCC1', 'c-Met %inh', 55.94);

---

measured_on: c-Met (Homo sapiens, UniProt P08581)
Sequence (P08581 25-1390): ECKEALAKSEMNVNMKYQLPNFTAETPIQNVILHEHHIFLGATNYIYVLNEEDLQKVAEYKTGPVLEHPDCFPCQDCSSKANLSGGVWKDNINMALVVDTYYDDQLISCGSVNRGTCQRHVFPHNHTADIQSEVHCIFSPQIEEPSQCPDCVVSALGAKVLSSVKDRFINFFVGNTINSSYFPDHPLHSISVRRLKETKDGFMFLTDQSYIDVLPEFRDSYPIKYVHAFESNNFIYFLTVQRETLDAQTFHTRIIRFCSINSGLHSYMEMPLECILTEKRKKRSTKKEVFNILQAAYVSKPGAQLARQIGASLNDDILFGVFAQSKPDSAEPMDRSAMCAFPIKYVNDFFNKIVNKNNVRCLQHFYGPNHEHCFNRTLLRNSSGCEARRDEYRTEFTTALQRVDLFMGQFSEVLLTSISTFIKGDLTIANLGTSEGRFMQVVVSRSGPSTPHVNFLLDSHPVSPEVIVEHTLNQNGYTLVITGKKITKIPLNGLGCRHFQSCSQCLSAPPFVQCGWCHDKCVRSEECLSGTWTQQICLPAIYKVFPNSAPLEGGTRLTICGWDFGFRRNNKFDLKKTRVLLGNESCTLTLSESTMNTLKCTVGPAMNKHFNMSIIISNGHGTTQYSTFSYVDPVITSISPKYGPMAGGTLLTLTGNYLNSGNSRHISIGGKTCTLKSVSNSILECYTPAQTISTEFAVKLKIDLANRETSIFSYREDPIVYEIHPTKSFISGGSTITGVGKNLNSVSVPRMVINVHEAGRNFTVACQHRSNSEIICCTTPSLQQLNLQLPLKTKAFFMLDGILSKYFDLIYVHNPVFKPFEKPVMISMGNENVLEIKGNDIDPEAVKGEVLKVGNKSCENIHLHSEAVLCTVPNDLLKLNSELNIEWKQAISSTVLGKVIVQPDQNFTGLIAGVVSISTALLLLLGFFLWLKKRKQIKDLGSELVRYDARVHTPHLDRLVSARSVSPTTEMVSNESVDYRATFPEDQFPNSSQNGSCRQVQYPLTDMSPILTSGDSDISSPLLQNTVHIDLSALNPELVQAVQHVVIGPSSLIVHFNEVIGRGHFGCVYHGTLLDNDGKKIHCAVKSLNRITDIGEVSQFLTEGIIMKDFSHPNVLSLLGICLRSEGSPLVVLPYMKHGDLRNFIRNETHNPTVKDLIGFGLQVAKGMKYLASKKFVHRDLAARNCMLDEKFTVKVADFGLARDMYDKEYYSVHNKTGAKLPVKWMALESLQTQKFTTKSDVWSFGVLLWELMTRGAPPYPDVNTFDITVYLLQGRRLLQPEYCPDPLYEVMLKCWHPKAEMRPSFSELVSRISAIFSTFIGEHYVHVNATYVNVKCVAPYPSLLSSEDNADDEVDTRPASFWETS
method_summary: In vitro c-Met tyrosine kinase inhibition assay
conditions: conc 10 (unit not given)
Overview of recorded c-Met %inh for various molecules
assay_endpoint: c-Met %inh

INSERT INTO measurements (molecule, result_value) VALUES
  ('Cc1cc(C)n(C(=O)CNC(=O)Cn2c(=O)[nH]c3ccccc3c2=O)n1 [Compound 4g]', '85.71%'),
  ('O=C(Cn1c(=O)[nH]c2ccccc2c1=O)NC1CCCCC1 [Compound 2c]', '92.28%'),
  ('O=C(Cn1c(=O)[nH]c2ccccc2c1=O)NCC(=O)NN=C1CCCCC1 [Compound 4e]', '92.94%'),
  ('O=C(Cn1c(=O)[nH]c2ccccc2c1=O)NCc1n[nH]c(=S)o1 [Compound 4h]', '86.83%'),
  ('O=C(Cn1c(=O)[nH]c2ccccc2c1=O)N1CCOCC1 [Compound 2f]', '88.98%'),
  ('O=C(Cn1c(=O)[nH]c2ccccc2c1=O)NCC(=O)N/N=C/c1ccc([N+](=O)[O-])cc1 [Compound 4b]', '93.15%');

---

VEGFR-2 %inh reference
measured_on: UniProt P35968
method_summary: In vitro VEGFR-2 tyrosine kinase inhibition assay (BPS KDR Assay Kit)
conditions: conc 0.1 (unit not given)
assay_endpoint: VEGFR-2 %inh (%)

INSERT INTO measurements (compound, assay_endpoint, unit_abbrev, result_value) VALUES
  ('O=C(Cn1c(=O)[nH]c2ccccc2c1=O)NCc1n[nH]c(=S)o1 [Compound 4h]', 'VEGFR-2 %inh', '%', 40.45),
  ('O=C(Cn1c(=O)[nH]c2ccccc2c1=O)NCC(=O)NN=C1CCCCC1 [Compound 4e]', 'VEGFR-2 %inh', '%', 50.29),
  ('O=C(Cn1c(=O)[nH]c2ccccc2c1=O)N1CCOCC1 [Compound 2f]', 'VEGFR-2 %inh', '%', 43.39),
  ('Cc1cc(C)n(C(=O)CNC(=O)Cn2c(=O)[nH]c3ccccc3c2=O)n1 [Compound 4g]', 'VEGFR-2 %inh', '%', 52.07),
  ('O=C(Cn1c(=O)[nH]c2ccccc2c1=O)NCC(=O)N/N=C/c1ccc([N+](=O)[O-])cc1 [Compound 4b]', 'VEGFR-2 %inh', '%', 60.12),
  ('O=C(Cn1c(=O)[nH]c2ccccc2c1=O)NC1CCCCC1 [Compound 2c]', 'VEGFR-2 %inh', '%', 56.18);

---

measured_on: VEGFR-2 (Homo sapiens, UniProt P35968)
method_summary: In vitro VEGFR-2 tyrosine kinase inhibition assay (BPS KDR Assay Kit)
conditions: conc 10 (unit not given)
Measured VEGFR-2 %inh, listed per entry for reference.
assay_endpoint: VEGFR-2 %inh

INSERT INTO assay_data (molecular_string, result_value) VALUES
  ('O=C(Cn1c(=O)[nH]c2ccccc2c1=O)N1CCOCC1', '85.96%'),
  ('O=C(Cn1c(=O)[nH]c2ccccc2c1=O)NCC(=O)NN=C1CCCCC1', '86.83%'),
  ('Cc1cc(C)n(C(=O)CNC(=O)Cn2c(=O)[nH]c3ccccc3c2=O)n1', '88.15%'),
  ('O=C(Cn1c(=O)[nH]c2ccccc2c1=O)NCC(=O)N/N=C/c1ccc([N+](=O)[O-])cc1', '90.09%'),
  ('O=C(Cn1c(=O)[nH]c2ccccc2c1=O)NC1CCCCC1', '88.96%'),
  ('O=C(Cn1c(=O)[nH]c2ccccc2c1=O)NCc1n[nH]c(=S)o1', '82.49%');

---

System: HCT-116 colon cancer cell line
method_summary: MTT assay, in vitro cytotoxicity against HCT-116
Type: cell-based
conditions: Homo sapiens, HCT-116, MTT assay, read-out: IC50, in vitro cytotoxicity against HCT116 cell line
Each entry below carries its reported IC50.
assay_endpoint: IC50 (µM)

INSERT INTO results (molecule, measured_on, unit_abbrev, result_value) VALUES
  ('O=C(Cn1c(=O)[nH]c2ccccc2c1=O)NCc1n[nH]c(=S)o1 [Compound 4h]', 'HCT-116 colon cancer cell line', 'µM', 6.99),
  ('COc1ccc(/C=N/NC(=O)CNC(=O)Cn2c(=O)[nH]c3ccccc3c2=O)cc1 [Compound 4c]', 'HCT-116 colon cancer cell line', 'µM', 31.8),
  ('O=C(Cn1c(=O)[nH]c2ccccc2c1=O)NCc1n[nH]c(=S)n1-c1ccccc1 [Compound 4j]', 'HCT-116 colon cancer cell line', 'µM', 18.9),
  ('O=C(Cn1c(=O)[nH]c2ccccc2c1=O)NCC(=O)NNC(=S)Nc1ccccc1 [Compound 4i]', 'HCT-116 colon cancer cell line', 'µM', 9.2),
  ('O=C(Cn1c(=O)[nH]c2ccccc2c1=O)N1CCOCC1 [Compound 2f]', 'HCT-116 colon cancer cell line', 'µM', 5.4),
  ('COc1cc2nccc(Oc3ccc(NC(=O)C4(C(=O)Nc5ccc(F)cc5)CC4)cc3)c2cc1OC [Cabozantinib, reference compound]', 'HCT-116 colon cancer cell line', 'µM', 16.4),
  ('O=C(Cn1c(=O)[nH]c2ccccc2c1=O)N1CCCCC1 [Compound 2e]', 'HCT-116 colon cancer cell line', 'µM', 38),
  ('CCOC(=O)CNC(=O)Cn1c(=O)[nH]c2ccccc2c1=O [Compound 2g]', 'HCT-116 colon cancer cell line', 'µM', 12.5),
  ('Cc1cc(C)n(C(=O)CNC(=O)Cn2c(=O)[nH]c3ccccc3c2=O)n1 [Compound 4g]', 'HCT-116 colon cancer cell line', 'µM', 3.7),
  ('O=C(Cn1c(=O)[nH]c2ccccc2c1=O)Nc1ccccc1 [Compound 2a]', 'HCT-116 colon cancer cell line', 'µM', 15.1);

---

System: HCT-116 colon cancer cell line
method_summary: MTT assay, in vitro cytotoxicity against HCT-116
Type: cell-based
conditions: Homo sapiens, HCT-116, MTT assay, read-out: IC50, in vitro cytotoxicity against HCT116 cell line
hey, just use satisfied if measured IC50 is less than 20 µM, otherwise not satisfied

INSERT INTO results (molecular_string, label_class) VALUES
  ('CN(C)C(=O)Cn1c(=O)[nH]c2ccccc2c1=O', 'not satisfied'),
  ('O=C(Cn1c(=O)[nH]c2ccccc2c1=O)NCC(=O)N/N=C/c1ccc([N+](=O)[O-])cc1', 'satisfied'),
  ('O=C(Cn1c(=O)[nH]c2ccccc2c1=O)NC1CCCCC1', 'satisfied'),
  ('O=C(Cn1c(=O)[nH]c2ccccc2c1=O)NCc1ccccc1', 'satisfied'),
  ('O=C(Cn1c(=O)[nH]c2ccccc2c1=O)NCC(=O)NN=C1CCCCC1', 'satisfied'),
  ('O=C(Cn1c(=O)[nH]c2ccccc2c1=O)NCC(=O)N/N=C/c1ccccc1', 'not satisfied'),
  ('NNC(=O)CNC(=O)Cn1c(=O)[nH]c2ccccc2c1=O', 'not satisfied'),
  ('O=C(Cn1c(=O)[nH]c2ccccc2c1=O)NCC(=O)N/N=C1\C(=O)Nc2ccccc21', 'not satisfied'),
  ('O=C(Cn1c(=O)[nH]c2ccccc2c1=O)NCC(=O)N/N=C/c1ccco1', 'satisfied');

---

measured_on: VEGFR-2 (Homo sapiens, UniProt P35968)
method_summary: In vitro VEGFR-2 tyrosine kinase inhibition assay (BPS KDR Assay Kit)
conditions: conc 1 (unit not given)
This listing pairs compounds with measured VEGFR-2 %inh.
assay_endpoint: VEGFR-2 %inh (%)

INSERT INTO results (compound, assay_endpoint, result_value) VALUES
  ('O=C(Cn1c(=O)[nH]c2ccccc2c1=O)NCc1n[nH]c(=S)o1 [Compound 4h]', 'VEGFR-2 %inh', 60.74),
  ('O=C(Cn1c(=O)[nH]c2ccccc2c1=O)NCC(=O)NN=C1CCCCC1 [Compound 4e]', 'VEGFR-2 %inh', 73.09),
  ('O=C(Cn1c(=O)[nH]c2ccccc2c1=O)NCC(=O)N/N=C/c1ccc([N+](=O)[O-])cc1 [Compound 4b]', 'VEGFR-2 %inh', 78.48),
  ('Cc1cc(C)n(C(=O)CNC(=O)Cn2c(=O)[nH]c3ccccc3c2=O)n1 [Compound 4g]', 'VEGFR-2 %inh', 70.58),
  ('O=C(Cn1c(=O)[nH]c2ccccc2c1=O)N1CCOCC1 [Compound 2f]', 'VEGFR-2 %inh', 68.26),
  ('O=C(Cn1c(=O)[nH]c2ccccc2c1=O)NC1CCCCC1 [Compound 2c]', 'VEGFR-2 %inh', 76.46);
